Tested on: pain hypersensitivity model rats
test protocol: Mechanical stimulation test (Dynamic Plantar Aesthesiometer), pain threshold of left plantar
Assay type: in vivo
condition parameters: 0.3 mg/kg intraperitoneal, max pressure 15.0 g, measured 30, 60, 90 min after administration
reported endpoint: maximum pain threshold after the administration (g)
Reply numerically in g, unit not repeated.

Please review the following examples before continuing.
1) CC1(C)O[C@@H]2C[C@H]3[C@@H]4CCC5=CC(=O)C=C[C@]5(C)[C@@]4(F)[C@@H](O)C[C@]3(C)[C@]2(C(=O)CO)O1 [triamcinolone acetonide] ... 6.6
2) C[C@]12CC[C@@H]3c4ccc(O)cc4CC[C@H]3[C@@H]1CC[C@@H]2O [17β-estradiol] ... 8.1
3) C[C@]12CC[C@@H]3c4ccc(O)cc4C[C@@H](CCCCCCCCC[S+]([O-])CCCC(F)(F)C(F)(F)F)[C@H]3[C@@H]1CC[C@@H]2O (stereo partly shown) [ICI182.780] ... 6.7

Proceeding to the next molecule to report its maximum pain threshold after the administration.
Q) Any idea what maximum pain threshold after the administration came out for CC1(C)O[C@@H]2C[C@H]3[C@@H]4C[C@H](F)C5=CC(=O)C=C[C@]5(C)[C@@]4(F)[C@@H](O)C[C@]3(C)[C@]2(C(=O)CO)O1 [fluocinolone acetonide] on pain hypersensitivity model rats?
A) 7.5
